- experimental_system: Alpha-bungarotoxin (Bungarus multicinctus)
- experiment_notes: alpha-bungarotoxin binders on microarray, profiling panel, artefact control for SMM control protein annotation, biochemical, small-molecule microarray, Alexa647 label, 635/667 nm fluorescence (AID 1117)
- condition_details: alpha-BTX-A647 binding fluorescence, higher = more signal
Here the recorded composite z-score is given for each entry.

{"compound": "Cc1ccc(S[C@]2(C(=O)NC3CC3)CC(=O)N(Cc3ccccc3)[C@@H]2c2ccc(CO)cc2I)cc1", "composite z-score": -0.734}
{"compound": "O=C1O[C@H](c2ccccc2)[C@H](c2ccccc2)N2[C@H]1[C@@H](C(=O)N1CCCCCCC1)[C@]1(C(=O)Nc3ccc(C#CC4=CCCCC4)cc31)[C@H]2c1ccc(OCCO)cc1", "composite z-score": 3.42}
{"compound": "C=C(COC)C(=O)CC[C@@H](OC(C)=O)c1ccc(CO)o1", "composite z-score": -0.0178}
{"compound": "C=C(COC)/C(=C/C[C@H](OC(C)=O)c1ccc(CO)o1)c1cc(C(=O)OC)ccc1OC", "composite z-score": -0.136}
{"compound": "C=CC[C@]1(C(=O)NCc2ccccc2)N=C(c2ccc(OCCCO)cc2)O[C@H]1c1ccccc1N=[N+]=[N-]", "composite z-score": 1.65}
{"compound": "COc1ccc(C#Cc2ccc3c(c2)[C@]2(C(=O)N3)[C@H](C(=O)Nc3nc4ccccc4s3)[C@H]3C(=O)O[C@H](c4ccccc4)[C@H](c4ccccc4)N3[C@@H]2c2ccc(O)cc2)cc1", "composite z-score": 1.66}
{"compound": "[N-]=[N+]=NCc1ccccc1C[C@]1(C(N)=O)COC(c2ccc(OCCCO)cc2)=N1", "composite z-score": 1.58}
{"compound": "[N-]=[N+]=Nc1ccccc1[C@H]1OC(c2ccc(OCCCO)cc2)=N[C@@]1(CCS(=O)(=O)c1ccccc1)C(N)=O", "composite z-score": 1.92}
{"compound": "Cc1ccc(S[C@]2(C(=O)NCCCN(C)C)CC(=O)N(Cc3cc(C(F)(F)F)cc(C(F)(F)F)c3)[C@@H]2c2ccc(CO)cc2I)cc1", "composite z-score": 0.0119}
{"compound": "COC(=O)C[C@H]1O[C@]2(C(=O)N(C)c3ccccc32)[C@@H](C)[C@@H]1[Si](C)(C)F", "composite z-score": -0.0089}
{"compound": "COC(=O)C(CC#Cc1ccc2c(c1)[C@]1(C(=O)N2)[C@H](c2ccc(OCCO)cc2)N2[C@H](c3ccccc3)[C@H](c3ccccc3)OC(=O)[C@H]2[C@@H]1C(=O)Nc1nc2ccccc2s1)C(=O)OC", "composite z-score": 1.11}
{"compound": "CC(C)C(=C=CC[C@@H](O)c1ccc(OCCO)cc1)C[C@@H](O)COCc1ccccc1", "composite z-score": 0.119}
{"compound": "COCC(=C=CC[C@@H](O)c1cccc(OCCO)c1)C[C@@H](O)c1ccccn1", "composite z-score": 0.216}
{"compound": "COc1cc2c(cc1OC)CN(C(=O)[C@@H]1[C@H]3C(=O)O[C@H](c4ccccc4)[C@H](c4ccccc4)N3[C@H](c3ccc(O)cc3)[C@@]13C(=O)Nc1ccccc13)CC2", "composite z-score": 1.74}
{"compound": "CCOC(=O)C[C@H]1[C@H](OC(=O)c2ccc(C(=O)c3ccccc3)cc2)[C@@H](NC(=O)c2ccccc2)c2cc(OCCCO)ccc2N1C(=O)Cc1ccc(OC)cc1", "composite z-score": 0.178}
{"compound": "CCCc1cc2c(n1Cc1cc(F)cc(F)c1)C(C)C1CN(C(=O)c3ccccc3)C(C)(C(=O)OC)C21 (centres undefined)", "composite z-score": 2.34}
{"compound": "CC(C)C(O)C1C=CC2C(=O)N(c3ccccc3)C(=O)C2N1Nc1ccc([N+](=O)[O-])cc1 (centres undefined)", "composite z-score": 0.801}
{"compound": "COCCOC(=O)N1C(=O)[C@@]2(c3cc(C#Cc4ccc(OC)cc4)ccc31)[C@H](c1ccc(OCCO)cc1)N1[C@H](c3ccccc3)[C@H](c3ccccc3)OC(=O)[C@H]1[C@@H]2C(=O)N1CCN(c2ncccn2)CC1", "composite z-score": 0.953}
{"compound": "COC(=O)[C@]1(CCC(=O)OC(C)(C)C)N=C(c2ccc(OCCCO)cc2)O[C@@H]1c1ccccc1CN=[N+]=[N-]", "composite z-score": 0.869}
{"compound": "C=CC[C@]1(C(=O)NCCCOC)N=C(c2ccc(OCCCO)cc2)O[C@H]1c1ccccc1CN=[N+]=[N-]", "composite z-score": 1.14}
{"compound": "O=C(CS)NCCCCCCNC(=O)[C@@H]1C[C@@H]2C(=O)N[C@@H](Cc3ccccc3)C(=O)N2[C@@H]1c1cccc(OCCO)c1", "composite z-score": 1.2}
{"compound": "COCCOC(=O)N1C(=O)[C@@]2(c3cc(C#CCNC(N)=O)ccc31)[C@H](C(=O)N1CCN(c3ncccn3)CC1)[C@H]1C(=O)O[C@H](c3ccccc3)[C@H](c3ccccc3)N1[C@@H]2c1ccc(OCCO)cc1", "composite z-score": 1.82}
{"compound": "CN1C(=O)C2C=CC(C(O)C3CC=CCC3)N(N(c3ccccc3)c3ccccc3)C2C1=O (centres undefined)", "composite z-score": 0.141}
{"compound": "CC(=O)NCCCC[C@@H]1NC(=O)[C@H]2C[C@@H](C(=O)NCCCCCCNC(=O)CS)[C@@H](c3ccc(O)cc3)N2C1=O", "composite z-score": 1.33}
